Target: EGFR (Homo sapiens, UniProt P00533)
Construct: purchased #40321
Sequence (P00533 25-1210): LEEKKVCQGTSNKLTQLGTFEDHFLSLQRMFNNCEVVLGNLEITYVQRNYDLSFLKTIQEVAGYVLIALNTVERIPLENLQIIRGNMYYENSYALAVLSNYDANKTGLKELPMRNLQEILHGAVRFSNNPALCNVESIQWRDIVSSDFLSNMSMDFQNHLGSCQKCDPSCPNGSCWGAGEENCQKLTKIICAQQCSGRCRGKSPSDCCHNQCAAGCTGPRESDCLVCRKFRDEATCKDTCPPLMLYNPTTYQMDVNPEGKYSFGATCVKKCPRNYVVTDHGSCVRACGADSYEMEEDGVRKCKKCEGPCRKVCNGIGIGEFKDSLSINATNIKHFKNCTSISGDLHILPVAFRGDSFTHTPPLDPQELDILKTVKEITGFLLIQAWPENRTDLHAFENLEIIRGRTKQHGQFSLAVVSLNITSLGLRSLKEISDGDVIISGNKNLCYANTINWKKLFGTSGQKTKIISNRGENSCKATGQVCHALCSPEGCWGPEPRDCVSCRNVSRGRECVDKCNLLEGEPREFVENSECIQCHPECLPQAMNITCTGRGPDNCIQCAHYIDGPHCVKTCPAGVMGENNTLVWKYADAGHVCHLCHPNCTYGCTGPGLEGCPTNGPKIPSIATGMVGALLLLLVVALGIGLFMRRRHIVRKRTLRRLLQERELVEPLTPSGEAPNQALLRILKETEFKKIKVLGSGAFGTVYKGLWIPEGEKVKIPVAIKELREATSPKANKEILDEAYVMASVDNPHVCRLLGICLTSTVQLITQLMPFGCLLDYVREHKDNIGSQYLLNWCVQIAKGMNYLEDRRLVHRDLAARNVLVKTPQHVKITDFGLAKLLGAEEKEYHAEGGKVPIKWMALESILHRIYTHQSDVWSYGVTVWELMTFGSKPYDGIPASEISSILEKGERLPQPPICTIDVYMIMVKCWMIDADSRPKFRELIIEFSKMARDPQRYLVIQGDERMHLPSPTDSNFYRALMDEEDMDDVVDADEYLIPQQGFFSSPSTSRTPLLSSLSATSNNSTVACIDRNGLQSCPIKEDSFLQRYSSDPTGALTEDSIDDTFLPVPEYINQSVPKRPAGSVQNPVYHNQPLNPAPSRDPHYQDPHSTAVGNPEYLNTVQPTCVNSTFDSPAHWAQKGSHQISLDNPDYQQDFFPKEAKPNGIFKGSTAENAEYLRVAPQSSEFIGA
Experiment: EGFR kinase assay kit, Kinase-Glo MAX luminescence
Assay type: biochemical
Conditions: 1 µM; one experimental data
Kindly return criterion met if reported inhibition at 1 µM is no lower than 80%; return criterion not met if it is lower.

CCOC(=O)CSc1nc2cc(OC)c(OC)cc2c(=O)n1Cc1ccccc1 [2i]    criterion not met

Test whether the compound CCOC(=O)CSc1nc2c(F)cc(F)cc2c(=O)n1Cc1ccccc1 [2h] records inhibition at 1 µM of 80% or higher.
criterion not met

Hi team, for COc1cc2nc(SCC(=O)NN)n(Cc3ccccc3)c(=O)c2cc1OC [3i] , is the recorded inhibition at 1 µM at or above 80%?
criterion not met

In plain terms: is recorded inhibition at 1 µM at least 80% for CCOC(=O)CSc1nc2c(C)cc(Cl)cc2c(=O)n1Cc1ccccc1 [2j] ?
criterion met

* * *

Target: EGFR (Homo sapiens)
Catalogue of IC50 readings, one per entry.
Field: value (include unit after the number)

Some compounds with recorded IC50:
Cc1cc(Cl)cc2c(=O)n(Cc3ccccc3)c(SCC(=O)NN)nc12    371 nM
NNC(=O)CSc1nc2ccc(F)cc2c(=O)n1Cc1ccccc1    221 nM

The compound CCOC(=O)CSc1nc2ccc(F)cc2c(=O)n1Cc1ccccc1 on EGFR (Homo sapiens): IC50 was 232 nM

* * *

Reported inhibition at 10 µM is given for each of the following compounds.
Biological target: HER2 (Homo sapiens)
Construct: purchased #40721
Assay: HER2 kinase assay kit, Kinase-Glo MAX luminescence
Assay type: biochemical
Details: 10 µM; one experimental data
The reply should contain only the number, in %.

Here is how some compounds turned out for inhibition at 10 µM.
CS(=O)(=O)CCNCc1ccc(-c2ccc3ncnc(Nc4ccc(OCc5cccc(F)c5)c(Cl)c4)c3c2)o1 [lapatinib, reference compound]    92.2
NNC(=O)CSc1nc2ccc(F)cc2c(=O)n1Cc1ccccc1    94.8
CCOC(=O)CSc1nc2c(C)cc(Cl)cc2c(=O)n1Cc1ccccc1    93.5
CCOC(=O)CSc1nc2cc(OC)c(OC)cc2c(=O)n1Cc1ccccc1    94.8
Cc1cc(Cl)cc2c(=O)n(Cc3ccccc3)c(SCC(=O)NN)nc12    92.2

The reported value for COc1cc2nc(SCC(=O)NN)n(Cc3ccccc3)c(=O)c2cc1OC in terms of inhibition at 10 µM is 94.8

The recorded inhibition at 10 µM for entry NNC(=O)CSc1nc2ccc(Cl)cc2c(=O)n1Cc1ccccc1 equals 90.2

For this compound ( CCOC(=O)CSc1nc2ccc(F)cc2c(=O)n1Cc1ccccc1 ), measured inhibition at 10 µM is 94.4

The reported inhibition at 10 µM of the compound CCOC(=O)CSc1nc2ccc(Cl)cc2c(=O)n1Cc1ccccc1 was 89.8

For reference, reported inhibition at 10 µM for NNC(=O)CSc1nc2c(F)cc(F)cc2c(=O)n1Cc1ccccc1 stands at 89.8

The compound listed as CCOC(=O)CSc1nc2c(F)cc(F)cc2c(=O)n1Cc1ccccc1 shows inhibition at 10 µM equal to 82.3

* * *

Parameter: inhibition at 10 µM. Scope: all listed entries.
Molecular target: VEGFR2 (Homo sapiens)
Construct: purchased #40325
Assay: VEGFR2 kinase assay kit, Kinase-Glo MAX luminescence
Type: biochemical
Conditions: 10 µM; one experimental data; read-out: % Inhibition VEGFR-2
Reply with just the number (in %).

Example results:
NNC(=O)CSc1nc2c(F)cc(F)cc2c(=O)n1Cc1ccccc1    33.1
CCOC(=O)CSc1nc2c(C)cc(Cl)cc2c(=O)n1Cc1ccccc1    33.9
NNC(=O)CSc1nc2ccc(F)cc2c(=O)n1Cc1ccccc1    90.3
NNC(=O)CSc1nc2ccc(Cl)cc2c(=O)n1Cc1ccccc1    79.3

Sample Cc1cc(Cl)cc2c(=O)n(Cc3ccccc3)c(SCC(=O)NN)nc12 ; inhibition at 10 µM observed: 74.4

* * *

Some molecules, each annotated with its measured inhibition at 1 µM.
Target: EGFR (Homo sapiens, UniProt P00533)
Construct: purchased #40321
Test: EGFR kinase assay kit, Kinase-Glo MAX luminescence
Type: biochemical
Conditions: 1 µM; one experimental data
Your answer is read as %, so omit the unit and give the number.

Some entries whose results are on file:
NNC(=O)CSc1nc2c(F)cc(F)cc2c(=O)n1Cc1ccccc1    29.2
CCOC(=O)CSc1nc2ccc(F)cc2c(=O)n1Cc1ccccc1    80.1
Cc1cc(Cl)cc2c(=O)n(Cc3ccccc3)c(SCC(=O)NN)nc12    81
CCOC(=O)CSc1nc2ccc(Cl)cc2c(=O)n1Cc1ccccc1    29.2

GET /values?item= NNC(=O)CSc1nc2ccc(Cl)cc2c(=O)n1Cc1ccccc1 &system= EGFR (Homo sapiens, UniProt P00533) returns inhibition at 1 µM: 31.4

* * *

# pIC50 values compiled below
Molecular target: HER2 (Homo sapiens, UniProt P04626)
Sequence (P04626 23-1255): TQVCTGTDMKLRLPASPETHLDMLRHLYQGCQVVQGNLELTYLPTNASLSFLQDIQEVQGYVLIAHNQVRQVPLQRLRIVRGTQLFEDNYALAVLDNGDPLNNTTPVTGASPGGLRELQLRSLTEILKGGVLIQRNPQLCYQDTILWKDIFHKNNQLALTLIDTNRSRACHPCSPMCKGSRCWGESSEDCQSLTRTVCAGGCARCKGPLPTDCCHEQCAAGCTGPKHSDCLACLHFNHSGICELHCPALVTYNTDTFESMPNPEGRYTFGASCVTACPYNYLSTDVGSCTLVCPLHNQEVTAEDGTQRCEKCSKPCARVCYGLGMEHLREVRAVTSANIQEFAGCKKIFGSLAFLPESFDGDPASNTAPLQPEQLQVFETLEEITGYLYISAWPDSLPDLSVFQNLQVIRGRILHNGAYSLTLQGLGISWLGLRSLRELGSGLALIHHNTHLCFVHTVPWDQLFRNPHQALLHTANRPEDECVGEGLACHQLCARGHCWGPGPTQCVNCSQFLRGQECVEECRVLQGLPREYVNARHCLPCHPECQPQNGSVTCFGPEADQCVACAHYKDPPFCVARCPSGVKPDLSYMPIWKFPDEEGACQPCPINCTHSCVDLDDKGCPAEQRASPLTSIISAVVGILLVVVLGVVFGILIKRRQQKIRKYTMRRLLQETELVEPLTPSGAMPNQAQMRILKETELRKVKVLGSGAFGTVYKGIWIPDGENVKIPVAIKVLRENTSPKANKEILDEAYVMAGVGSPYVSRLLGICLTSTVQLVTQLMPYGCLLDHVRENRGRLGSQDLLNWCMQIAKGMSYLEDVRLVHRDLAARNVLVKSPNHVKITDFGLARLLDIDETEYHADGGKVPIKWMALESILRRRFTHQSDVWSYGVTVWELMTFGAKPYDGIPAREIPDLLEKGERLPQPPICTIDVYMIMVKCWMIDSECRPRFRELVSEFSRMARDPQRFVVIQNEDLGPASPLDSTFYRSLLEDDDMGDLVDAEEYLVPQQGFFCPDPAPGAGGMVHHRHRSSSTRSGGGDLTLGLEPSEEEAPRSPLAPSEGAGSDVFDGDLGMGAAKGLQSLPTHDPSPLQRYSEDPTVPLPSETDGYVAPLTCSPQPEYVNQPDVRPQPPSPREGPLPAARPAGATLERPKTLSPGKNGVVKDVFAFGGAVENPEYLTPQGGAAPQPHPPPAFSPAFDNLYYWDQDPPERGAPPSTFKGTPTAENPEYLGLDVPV
Reminder that pIC50 means the negative base-10 logarithm of the concentration expressed in mol/L.

Field: example entries. Status: answers known.
NNC(=O)CSc1nc2ccc(Cl)cc2c(=O)n1Cc1ccccc1 [3f]    6.88
CCOC(=O)CSc1nc2cc(OC)c(OC)cc2c(=O)n1Cc1ccccc1 [2i]    6.89

The compound listed as COc1cc2nc(SCC(=O)NN)n(Cc3ccccc3)c(=O)c2cc1OC [3i] shows pIC50 equal to 7.10

# pIC50 of CCOC(=O)CSc1nc2ccc(F)cc2c(=O)n1Cc1ccccc1 [2g] = 6.05

What the record says about CCOC(=O)CSc1nc2c(F)cc(F)cc2c(=O)n1Cc1ccccc1 [2h] : pIC50 is 6.86

Reported pIC50 of NNC(=O)CSc1nc2ccc(F)cc2c(=O)n1Cc1ccccc1 [3g] : 6.95

* * *

Molecular target: CDK2/CyclinA2 (Homo sapiens, UniProt P24941)
Construct: purchased #79599
Assay: CDK2 Assay Kit, Kinase-Glo MAX luminescence
Type: biochemical
Conditions: 1 µM; one experimental data
Procedure: The CDK2 Assay Kit is designed to measure CDK2/CyclinA2 activity for screening and profiling applications, using Kinase-Glo® MAX as a detection reagent. […] After the enzymatic reaction, 50 μl of Kinase-Glo® MAX Luminescence kinase assay solution was added to each reaction and the plates were incubated for 5 min at room temperature. Luminescence signal was measured using a Bio Tek Synergy 2 microplate reader. […] * All the kinase IC20 (µM) were calculated according to the above equations. […]
MEASURE: inhibition at 1 µM

As a guide, the following entries are already answered.
NNC(=O)CSc1nc2ccc(F)cc2c(=O)n1Cc1ccccc1    74.1%
NNC(=O)CSc1nc2ccc(Cl)cc2c(=O)n1Cc1ccccc1    33.3%
CCOC(=O)CSc1nc2ccc(Cl)cc2c(=O)n1Cc1ccccc1    32.9%
CCOC(=O)CSc1nc2c(F)cc(F)cc2c(=O)n1Cc1ccccc1    24.4%

Could you now look at the following compound, please?
Entry CCOC(=O)CSc1nc2ccc(F)cc2c(=O)n1Cc1ccccc1 ; assay system CDK2/CyclinA2 (Homo sapiens, UniProt P24941); inhibition at 1 µM recorded at 78.2%

* * *

Molecular target: VEGFR2 (Homo sapiens, UniProt P35968)
Sequence (P35968 20-1356): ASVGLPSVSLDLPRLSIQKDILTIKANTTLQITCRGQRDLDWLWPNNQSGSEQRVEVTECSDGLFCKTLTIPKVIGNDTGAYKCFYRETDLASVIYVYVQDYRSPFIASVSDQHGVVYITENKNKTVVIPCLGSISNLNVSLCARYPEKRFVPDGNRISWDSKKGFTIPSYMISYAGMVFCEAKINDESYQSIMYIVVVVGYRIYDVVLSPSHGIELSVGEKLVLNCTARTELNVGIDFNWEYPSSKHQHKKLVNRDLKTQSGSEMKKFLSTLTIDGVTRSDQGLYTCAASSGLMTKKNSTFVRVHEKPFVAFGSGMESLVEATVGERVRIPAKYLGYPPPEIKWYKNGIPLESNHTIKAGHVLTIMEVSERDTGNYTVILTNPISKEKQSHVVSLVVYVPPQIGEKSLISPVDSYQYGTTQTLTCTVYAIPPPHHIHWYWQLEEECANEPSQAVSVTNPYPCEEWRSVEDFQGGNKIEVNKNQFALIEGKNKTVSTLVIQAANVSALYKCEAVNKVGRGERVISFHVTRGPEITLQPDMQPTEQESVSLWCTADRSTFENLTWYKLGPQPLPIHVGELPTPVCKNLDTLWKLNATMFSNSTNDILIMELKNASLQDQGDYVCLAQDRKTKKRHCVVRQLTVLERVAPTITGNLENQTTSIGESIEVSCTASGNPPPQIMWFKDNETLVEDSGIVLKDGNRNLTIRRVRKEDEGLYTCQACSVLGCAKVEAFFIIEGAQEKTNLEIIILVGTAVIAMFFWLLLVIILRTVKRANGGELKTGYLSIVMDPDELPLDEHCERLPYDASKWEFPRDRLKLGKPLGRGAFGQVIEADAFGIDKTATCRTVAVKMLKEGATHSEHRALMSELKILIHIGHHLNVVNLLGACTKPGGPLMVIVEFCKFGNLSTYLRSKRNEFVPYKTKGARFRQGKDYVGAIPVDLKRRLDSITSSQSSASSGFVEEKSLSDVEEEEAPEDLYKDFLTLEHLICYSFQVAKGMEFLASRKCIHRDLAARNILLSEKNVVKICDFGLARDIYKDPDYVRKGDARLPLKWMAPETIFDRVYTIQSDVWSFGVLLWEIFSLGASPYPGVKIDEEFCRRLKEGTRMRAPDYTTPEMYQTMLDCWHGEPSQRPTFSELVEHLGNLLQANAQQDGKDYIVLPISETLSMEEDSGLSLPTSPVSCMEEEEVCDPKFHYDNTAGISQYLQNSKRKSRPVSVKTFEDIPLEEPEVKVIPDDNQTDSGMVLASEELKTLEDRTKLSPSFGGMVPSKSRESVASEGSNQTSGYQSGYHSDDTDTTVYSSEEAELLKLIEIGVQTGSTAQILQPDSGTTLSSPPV
Item-by-item account of IC50
The reply should contain only the number, in nM.

These recorded examples may help you get a feel for the data.
NNC(=O)CSc1nc2ccc(F)cc2c(=O)n1Cc1ccccc1    294
CCOC(=O)CSc1nc2c(C)cc(Cl)cc2c(=O)n1Cc1ccccc1    247

Query CCOC(=O)CSc1nc2ccc(F)cc2c(=O)n1Cc1ccccc1 yields IC50 of 702

* * *

Attribute: inhibition at 0.01 µM
Target: CDK2/CyclinA2 (Homo sapiens)
Construct: purchased #79599
Experiment: CDK2 Assay Kit, Kinase-Glo MAX luminescence
Type: biochemical
Details: 0.01 µM; one experimental data
Enter your answer as a number in %; do not include the unit.

Example results:
COc1cc2nc(SCC(=O)NN)n(Cc3ccccc3)c(=O)c2cc1OC    10.3
NNC(=O)CSc1nc2ccc(F)cc2c(=O)n1Cc1ccccc1    14.9
CCOC(=O)CSc1nc2cc(OC)c(OC)cc2c(=O)n1Cc1ccccc1    4.28
NNC(=O)CSc1nc2ccc(Cl)cc2c(=O)n1Cc1ccccc1    2.23

Now examine the next entry.
# compound CCOC(=O)CSc1nc2ccc(Cl)cc2c(=O)n1Cc1ccccc1 ; its inhibition at 0.01 µM = 4.32

* * *

Target: VEGFR2 (Homo sapiens, UniProt P35968)
Construct: purchased #40325
Assay: VEGFR2 kinase assay kit, Kinase-Glo MAX luminescence
Format: biochemical
Details: 1 µM; one experimental data; read-out: % Inhibition VEGFR-2
inhibition at 1 µM: recorded values
Write the answer as a number in %, unit excluded.

CCOC(=O)CSc1nc2ccc(F)cc2c(=O)n1Cc1ccccc1 [2g]    44.1
NNC(=O)CSc1nc2ccc(F)cc2c(=O)n1Cc1ccccc1 [3g]    71.9
COc1cc2nc(SCC(=O)NN)n(Cc3ccccc3)c(=O)c2cc1OC [3i]    37.2
CCOC(=O)CSc1nc2ccc(Cl)cc2c(=O)n1Cc1ccccc1 [2f]    40.1

# evaluate next
inhibition at 1 µM for NNC(=O)CSc1nc2ccc(Cl)cc2c(=O)n1Cc1ccccc1 [3f] is 23.4
